Tested on: Streptococcus pneumoniae A28272
method-summary: MIC, broth micro dilution assay (NCCLS)
Type: cell-based
condition-summary: Streptococcus pneumoniae, A28272, 18 h, read-out: MIC (μg/mL) against Streptococcus pneumoniae A28272

molecule | target | MIC [µg/mL]
CO/C(C)=C1/NC(=O)C(C(C)O)NC(=O)c2csc(n2)-c2cc(O)c(-c3nc(C(=O)NC(CN(C)CCO)C(N)=O)cs3)nc2-c2csc(n2)C2COC(=O)c3c4c5c(cccc5n3O)COC(=O)C(O[C@H]3C[C@](C)(O)[C@H](N(C)C)[C@H](C)O3)C(OC4)C(NC(=O)c3csc1n3)c1nc(cs1)C(=O)N2 (some centres unmarked) [Example 2] | Streptococcus pneumoniae A28272 | 0.015
CO/C(C)=C1/NC(=O)C([C@@H](C)O)NC(=O)c2csc(n2)-c2cc(O)c(-c3nc(C(=O)NC(CNCCCn4ccnc4)C(N)=O)cs3)nc2-c2csc(n2)[C@@H]2COC(=O)c3c4c5c(cccc5n3O)COC(=O)[C@@H](O[C@H]3C[C@](C)(O)[C@H](N(C)C)[C@H](C)O3)[C@H](OC4)[C@H](NC(=O)c3csc1n3)c1nc(cs1)C(=O)N2 (some centres unmarked) [Example 5] | Streptococcus pneumoniae A28272 | 0.03
CCN(CC)CCS(=O)(=O)CC(NC(=O)c1csc(-c2nc3c(cc2O)-c2nc(cs2)C(=O)NC(C(C)O)C(=O)N/C(=C(\C)OC)c2nc(cs2)C(=O)NC2c4nc(cs4)C(=O)NC(COC(=O)c4c5c6c(cccc6n4O)COC(=O)C(O[C@H]4C[C@](C)(O)C(N(C)C)[C@H](C)O4)C2OC5)c2nc-3cs2)n1)C(N)=O (some centres unmarked) [Example 103] | Streptococcus pneumoniae A28272 | 0.007
CO/C(C)=C1/NC(=O)C(C(C)O)NC(=O)c2csc(n2)-c2cc(O)c(-c3nc(C(=O)NC(CSCC(=O)O)C(N)=O)cs3)nc2-c2csc(n2)C2COC(=O)c3c4c5c(cccc5n3O)COC(=O)C(O[C@H]3C[C@](C)(O)[C@H](N(C)C)[C@H](C)O3)C(OC4)C(NC(=O)c3csc1n3)c1nc(cs1)C(=O)N2 (some centres unmarked) [Example 4] | Streptococcus pneumoniae A28272 | 0.125
CO/C(C)=C1/NC(=O)C(C(C)O)NC(=O)c2csc(n2)-c2cc(O)c(-c3nc(C(=O)NC(CN(C)CCN(C)C)C(N)=O)cs3)nc2-c2csc(n2)C2COC(=O)c3c4c5c(cccc5n3O)COC(=O)C(O[C@H]3C[C@](C)(O)[C@H](N(C)C)[C@H](C)O3)C(OC4)C(NC(=O)c3csc1n3)c1nc(cs1)C(=O)N2 (some centres unmarked) [Example 9] | Streptococcus pneumoniae A28272 | 0.007
CO/C(C)=C1/NC(=O)C(C(C)O)NC(=O)c2csc(n2)-c2cc(O)c(-c3nc(C(=O)NC(CSCCN(C)C)C(N)=O)cs3)nc2-c2csc(n2)C2COC(=O)c3c4c5c(cccc5n3O)COC(=O)C(O[C@H]3C[C@](C)(O)[C@H](N(C)C)[C@H](C)O3)C(OC4)C(NC(=O)c3csc1n3)c1nc(cs1)C(=O)N2 (some centres unmarked) [Example 10] | Streptococcus pneumoniae A28272 | 0.015
CO/C(C)=C1/NC(=O)C(C(C)O)NC(=O)c2csc(n2)-c2cc(O)c(-c3nc(C(=O)NC(CNCCc4ccccn4)C(N)=O)cs3)nc2-c2csc(n2)C2COC(=O)c3c4c5c(cccc5n3O)COC(=O)C(O[C@H]3C[C@](C)(O)[C@H](N(C)C)[C@H](C)O3)C(OC4)C(NC(=O)c3csc1n3)c1nc(cs1)C(=O)N2 (some centres unmarked) [Example 3] | Streptococcus pneumoniae A28272 | 0.25
CO/C(C)=C1/NC(=O)C(C(C)O)NC(=O)c2csc(n2)-c2cc(O)c(-c3nc(C(=O)NC(CS(=O)(=O)C4CN5CCC4CC5)C(N)=O)cs3)nc2-c2csc(n2)C2COC(=O)c3c4c5c(cccc5n3O)COC(=O)C(O[C@H]3C[C@](C)(O)C(N(C)C)[C@H](C)O3)C(OC4)C(NC(=O)c3csc1n3)c1nc(cs1)C(=O)N2 (some centres unmarked) [Example 104] | Streptococcus pneumoniae A28272 | 0.06
CO/C(C)=C1/NC(=O)C(C(C)O)NC(=O)c2csc(n2)-c2cc(O)c(-c3nc(C(=O)NC(CN4CCN(C)CC4)C(N)=O)cs3)nc2-c2csc(n2)C2COC(=O)c3c4c5c(cccc5n3O)COC(=O)C(O[C@H]3C[C@](C)(O)[C@H](N(C)C)[C@H](C)O3)C(OC4)C(NC(=O)c3csc1n3)c1nc(cs1)C(=O)N2 (some centres unmarked) [Example 1] | Streptococcus pneumoniae A28272 | 0.125
C/C=C1\NC(=O)C(C(C)O)NC(=O)c2csc(n2)-c2cc(O)c(-c3nc(C(=O)NC(CSCCN(CC)CC)C(N)=O)cs3)nc2-c2csc(n2)C2CSC(=O)c3[nH]c4cccc(c4c3C)COC(=O)C(O)CC(NC(=O)c3csc1n3)c1nc(cs1)C(=O)N2 (centres unmarked) [Example 102] | Streptococcus pneumoniae A28272 | 0.03
CCN(CC)CCN(C)CC(NC(=O)c1csc(-c2nc3c(cc2O)-c2nc(cs2)C(=O)NC(C(C)O)C(=O)N/C(=C(\C)OC)c2nc(cs2)C(=O)NC2c4nc(cs4)C(=O)NC(COC(=O)c4c5c6c(cccc6n4O)COC(=O)C(O[C@H]4C[C@](C)(O)[C@H](N(C)C)[C@H](C)O4)C2OC5)c2nc-3cs2)n1)C(N)=O (some centres unmarked) [Example 6] | Streptococcus pneumoniae A28272 | 0.03
CO/C(C)=C1/NC(=O)C(C(C)O)NC(=O)c2csc(n2)-c2cc(O)c(-c3nc(C(=O)NC(CN(C)C)C(N)=O)cs3)nc2-c2csc(n2)C2COC(=O)c3c4c5c(cccc5n3O)COC(=O)C(O[C@H]3C[C@](C)(O)[C@H](N(C)C)[C@H](C)O3)C(OC4)C(NC(=O)c3csc1n3)c1nc(cs1)C(=O)N2 (some centres unmarked) [Example 7] | Streptococcus pneumoniae A28272 | 0.03
CO/C(C)=C1/NC(=O)C(C(C)O)NC(=O)c2csc(n2)-c2cc(O)c(-c3nc(C(=O)NC(CS(=O)(=O)C4C[N+]5([O-])CCC4CC5)C(N)=O)cs3)nc2-c2csc(n2)C2COC(=O)c3c4c5c(cccc5n3O)COC(=O)C(OC3CC(C)(O)C([N+](C)(C)[O-])C(C)O3)C(OC4)C(NC(=O)c3csc1n3)c1nc(cs1)C(=O)N2 (centres unmarked) [Example 105] | Streptococcus pneumoniae A28272 | 0.25
CO/C(C)=C1/NC(=O)C([C@@H](C)O)NC(=O)c2csc(n2)-c2cc(O)c(-c3nc(C(=O)NC(CN4CCOCC4)C(N)=O)cs3)nc2-c2csc(n2)[C@@H]2COC(=O)c3c4c5c(cccc5n3O)COC(=O)[C@@H](O[C@H]3C[C@](C)(O)[C@H](N(C)C)[C@H](C)O3)[C@@H](OC4)[C@H](NC(=O)c3csc1n3)c1nc(cs1)C(=O)N2 (some centres unmarked) [Example 8] | Streptococcus pneumoniae A28272 | 0.003
